System: MS2 coat protein
experiment_description: apparent KD of MS2 coat protein; higher = weaker reporter binding
condition_set: Eterna round: R107; input ligand: theophylline 20 uM
This listing pairs sequences with measured apparent KD of MS2 coat protein.
Give a bare numeral; the unit nM is implied.

Check out these entries, answers already filled in.
sequence_text	apparent KD of MS2 coat protein / nM
GAUGGAAUAAGAGAUACCAGACACAAUUUAGCAUGUAUAUACAUGAGGAUCACCCAUGUAGUCCCUUGGCAGCUCUGGUUAGUGU [theeternabot_exclusion_MS2_Theo_B_48]	27.7
UCGGAUGCGGCGGCCGCCACUCGCGGAUAACGAUAGCUUAACAUGAGGAUCACCCAUGUGUCAUGGAGGACCGGGCCCAUACCGU [pbpmullin]	36.4
AUUGUGAAGUCGGCCGCCACUGGUUAGUUUAACCUCAUGUAACAUGAGGAUCACCCAUGUAAUGACAGGACCGGGACAAUAGUAA [JR_ExcTryptoB_Sub015]	126
UGGUGUAGGGUAAAUAGGAUUAGUACAGAAGGAGCGCGAAUAAACGCAGGUAGGUCGCUGGAAUAACAUGAGGAUCACCCAUGUC [Same State Arginine A GF 26]	30.6
CAAACAUGAGGAUCACCCAUGUAAUCAGAUACCAGUGACGAAAGUCACCCUUGGCAGCUGAGUACAUAUUGGCAGAGGUGUUUGA [EThA NP+V+V2 #7]	94.2
GGACUAACCAGAAGGAGCGAUACGCAGAAACUGCAAUUUCCUCUACACGAGGAUCACCCGUGUCAGGUAGGUCGCUGGUUAGUCG	35.2
AGAUGUAGCGGAAGGAGCGUCAUGAGGAUCACCCAUGACUCCCGUUGUGGGAGUUCCUUAGGUCAGGUAGGUCGCCGUUACGUCA [Omei Arg B SS B v5]	563
AAUAAACAUGAGGAUCACCCAUGUAUGGAAGGAGCGGUAAAUAAACCAGGUAGGUCGCCAGUGUGAGGGUCAUCUAUGUAAUAAA [Exclusion - Arginine A (Freestyle 1)]	53.6
GUGACUUACGGGCGCCAUUUGUAAUAGGAAGGAGCGGCGAAAUAGCCAGGUAGGUCGCCUAUACAUGAGGAUCACCCAUGUCACC [Esatbileor]	105
GUUGAGACCUCGGCCGCCACUCGCCAUGAGGAUCUCCCAUGUAACAUGAGGAUCACCCAUGUACUGAGGACCGGGAGGUCCUUGU [Same State Tryptophan B GF 16]	18.5

Return the recorded apparent KD of MS2 coat protein value; entry: AAUAACAUGAGGAUCACCCAUGUAAAAGAUACCAGGGUGAUGAUCCUCCCUUGGCAGCUUACAGCUGAUCAAUAAGAUCGGCUGA [TheoAS #Tail #MS2BeforeAptamer #BothOrNeither]
256

Return the recorded apparent KD of MS2 coat protein value; entry: AUGUCACAUGAGGAUCACCCAUGUAUGGAUACCAGUUUAGUGAAUAACCCUUGGCAGCCAAGGAUGCGACAGAAAUCCGGAAAAC [theeternabot_sameState_MS2_Theo_A_22]
26.6
